FYI, the data here is from patent US7998952B2.

biological target: recombinant human PLK1[2-369]T210D (Homo sapiens, UniProt P53350, T210D); construct: recombinant human PLK1[2-369]T210D; Smt (SUMO) fusion partner (N, cleaved yes); assay: PLK1 DELFIA Kinase Assay; conditions: 50 μM ATP, 2 μM peptide substrate, 0.3 nM enzyme, 90 minutes at room temperature
Sequence (P53350 2-369 T210D): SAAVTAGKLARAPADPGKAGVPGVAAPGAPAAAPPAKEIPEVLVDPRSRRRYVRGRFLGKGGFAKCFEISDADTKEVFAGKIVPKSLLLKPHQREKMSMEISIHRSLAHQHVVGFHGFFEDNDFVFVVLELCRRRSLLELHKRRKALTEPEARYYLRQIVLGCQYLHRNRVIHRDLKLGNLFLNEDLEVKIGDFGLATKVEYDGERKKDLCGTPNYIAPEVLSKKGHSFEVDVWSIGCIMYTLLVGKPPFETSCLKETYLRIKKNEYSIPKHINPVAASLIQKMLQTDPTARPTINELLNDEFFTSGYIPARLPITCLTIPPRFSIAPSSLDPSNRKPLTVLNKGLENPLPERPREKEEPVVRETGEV
measured.metric: IC50

Cc1nc(N(C)CCN(C)C)ccc1Nc1ncc2c(n1)-c1ccc(Cl)cc1NC(=S)C2 :: 5 to 25 nM
Cc1nc2c(cc1Nc1ncc3c(n1)-c1ccc(C(F)(F)F)cc1NC(=S)C3)CCC(N(C)C)C2 (centres unmarked) :: 5 to 25 nM

Observed IC50, recombinant human PLK1[2-369]T210D (Homo sapiens, UniProt P53350, T210D), Cc1nc(N(C)CCCN(C)C)ccc1Nc1ncc2c(n1)-c1ccc(Cl)cc1NC(=S)C2 : 5 to 25 nM

recombinant human PLK1[2-369]T210D (Homo sapiens, UniProt P53350, T210D) assay, compound Cc1nc(NCCN(C)C)ccc1Nc1ncc2c(n1)-c1ccc(Cl)cc1NC(=S)C2 , recorded IC50 = 5 to 25 nM

Measured IC50 (recombinant human PLK1[2-369]T210D (Homo sapiens, UniProt P53350, T210D)), entry Cc1ncc(CCN2C[C@@H](C)O[C@H](C)C2)cc1Nc1ncc2c(n1)-c1ccc(Cl)cc1NC(=S)C2 : < 5 nM

Here Cc1nc(N(C)C2CCN(C)C2)ccc1Nc1ncc2c(n1)-c1ccc(C(F)(F)F)cc1NC(=S)C2 (centres unmarked) was tested on recombinant human PLK1[2-369]T210D (Homo sapiens, UniProt P53350, T210D), and its IC50 came to < 5 nM

Case Cc1ncc(CCN2CCC(N(C)C)CC2)cc1Nc1ncc2c(n1)-c1ccc(C(F)(F)F)cc1NC(=S)C2 , recombinant human PLK1[2-369]T210D (Homo sapiens, UniProt P53350, T210D), IC50 recorded as < 5 nM

Tested system recombinant human PLK1[2-369]T210D (Homo sapiens, UniProt P53350, T210D); IC50 recorded for CN(C)CCCc1cc2c(cc1Cl)NC(=S)Cc1cnc(Nc3cccnc3)nc1-2 was 5 to 25 nM
